Data origin: the supplement of paper PMC10724198

- Tested on: Saccharomyces cerevisiae
- assay-overview: protein stability index of tFT-peptide fusion (C-terminal peptide) (PSI (0-1 scale)); higher = more stable (slower turnover)
- assay-context: genetic background: wild type; temperature: 30 C

{"item-sequence": "KAQRSIWGKKSQ [ERV46 C-terminal 12 aa]", "protein stability index": 0.682}
{"item-sequence": "QRIKQNNFLSQL [MRPL37 C-terminal 12 aa]", "protein stability index": 0.731}
{"item-sequence": "NGRYIDTEFESM [LCB4 C-terminal 12 aa]", "protein stability index": 0.681}
{"item-sequence": "GEDVLEGGCLLI [YIR023C-A C-terminal 12 aa]", "protein stability index": 0.727}
{"item-sequence": "GDDDIDDDDDMI [TVP15 C-terminal 12 aa]", "protein stability index": 0.677}
{"item-sequence": "PLFADYLNKNLN [KTI12 C-terminal 12 aa]", "protein stability index": 0.671}
{"item-sequence": "AVGPRQTGEECR [YER088W-B C-terminal 12 aa]", "protein stability index": 0.669}
{"item-sequence": "VEDQSIEVKKEK [YPC1 C-terminal 12 aa]", "protein stability index": 0.714}
{"item-sequence": "VLAILFYPAWVE [YGR160W C-terminal 12 aa]", "protein stability index": 0.529}
{"item-sequence": "MFKFNVHKKSKV [TAD2 C-terminal 12 aa]", "protein stability index": 0.758}
{"item-sequence": "RPMQHMYINNFT [YAL026C-A C-terminal 12 aa]", "protein stability index": 0.672}
{"item-sequence": "AGADNTARLWTT [ERB1 C-terminal 12 aa]", "protein stability index": 0.736}
{"item-sequence": "EDHKFDLSTITV [MRPL24 C-terminal 12 aa]", "protein stability index": 0.717}
{"item-sequence": "GKQKQLLFHIGV [HEL2 C-terminal 12 aa]", "protein stability index": 0.718}
{"item-sequence": "VLHSIISICRIF [VPS65 C-terminal 12 aa]", "protein stability index": 0.641}
{"item-sequence": "QEIQKKPSQQVS [BIG1 C-terminal 12 aa]", "protein stability index": 0.683}
{"item-sequence": "HCLSNSASHSCG [YGR018C C-terminal 12 aa]", "protein stability index": 0.64}
{"item-sequence": "VPEPGDQPLVQA [YPR078C C-terminal 12 aa]", "protein stability index": 0.678}
{"item-sequence": "QSRYDNSRANRR [RAT1 C-terminal 12 aa]", "protein stability index": 0.731}
{"item-sequence": "KNVMRRGQFMKR [GRC3 C-terminal 12 aa]", "protein stability index": 0.753}
{"item-sequence": "REVLEQEGRRIE [NBL1 C-terminal 12 aa]", "protein stability index": 0.693}
{"item-sequence": "KDDTPEDNLEDK [VBA5 C-terminal 12 aa]", "protein stability index": 0.71}
{"item-sequence": "KKKKSLFLFGKI [YOR019W C-terminal 12 aa]", "protein stability index": 0.669}
{"item-sequence": "GIDLNSIKWSGH [NFS1 C-terminal 12 aa]", "protein stability index": 0.709}
{"item-sequence": "KRPPLPNMSFSW [YLL019W-A C-terminal 12 aa]", "protein stability index": 0.728}
{"item-sequence": "EDGRPPQNDFKE [TIM22 C-terminal 12 aa]", "protein stability index": 0.734}
{"item-sequence": "HWRSVYDEFGEL [APE1 C-terminal 12 aa]", "protein stability index": 0.701}
{"item-sequence": "LAEVIGVLLKDM [AIM10 C-terminal 12 aa]", "protein stability index": 0.646}
{"item-sequence": "IQAKLKISVHDI [BEM1 C-terminal 12 aa]", "protein stability index": 0.681}
{"item-sequence": "LIEKNFLSSHAG [YJR071W C-terminal 12 aa]", "protein stability index": 0.708}
{"item-sequence": "EQHNVLDTKKNE [SPC2 C-terminal 12 aa]", "protein stability index": 0.649}
{"item-sequence": "SSFSLSLPRLNQ [SPT7 C-terminal 12 aa]", "protein stability index": 0.675}
{"item-sequence": "YGSAPSLDSLFL [YJL067W C-terminal 12 aa]", "protein stability index": 0.698}
{"item-sequence": "IAEEIISMFAEN [YNR064C C-terminal 12 aa]", "protein stability index": 0.723}
{"item-sequence": "FSYIRSKQMQQK [MNE1 C-terminal 12 aa]", "protein stability index": 0.667}
{"item-sequence": "QTSAKISIRLLY [SER3 C-terminal 12 aa]", "protein stability index": 0.582}
{"item-sequence": "TAESDDDEEDDE [TIF5 C-terminal 12 aa]", "protein stability index": 0.709}
{"item-sequence": "FGSNVNQQFNFN [SRP1 C-terminal 12 aa]", "protein stability index": 0.719}
{"item-sequence": "TATSSSIILSDK [SSN2 C-terminal 12 aa]", "protein stability index": 0.665}
{"item-sequence": "KKVLLQAKQYSK [UBC9 C-terminal 12 aa]", "protein stability index": 0.682}
{"item-sequence": "TYRLGEWSKISV [POP1 C-terminal 12 aa]", "protein stability index": 0.691}
{"item-sequence": "DLYTEEFLKEGK [PRP39 C-terminal 12 aa]", "protein stability index": 0.668}
{"item-sequence": "KMFAKYRENSRI [DYN3 C-terminal 12 aa]", "protein stability index": 0.667}
{"item-sequence": "PFDYSDIPAADI [GPI10 C-terminal 12 aa]", "protein stability index": 0.698}
{"item-sequence": "CIISIVVFPTCI [BIO5 C-terminal 12 aa]", "protein stability index": 0.285}
{"item-sequence": "LELCKLASNNLE [RRI2 C-terminal 12 aa]", "protein stability index": 0.703}
{"item-sequence": "FLDDVLNGREII [YNL058C C-terminal 12 aa]", "protein stability index": 0.752}
{"item-sequence": "CERCKSELQSVH [SET6 C-terminal 12 aa]", "protein stability index": 0.663}
{"item-sequence": "LGKGGKGKRKMK [LSO2 C-terminal 12 aa]", "protein stability index": 0.64}
